Molecular target: Cathepsin S (Homo sapiens)
Test: IC50 of CTSS protease blockers – biochemical, confirmation, dose response (AID 831)
Details: purified cathepsin S enzyme activity, fluorescence
Active and inactive are the calls of the source. How the calls were made is not given here.
Select the matching outcome among active, inactive

Lab log entry: CCN1CC=C2C(C#N)=C(N)C(C#N)(C#N)C(CCc3ccccc3)C2C1 (centres undefined) — outcome as called in the assay?
active

Identify the outcome logged in this assay for the compound shown: N#CC1=C(N)Oc2c(sc3ccccc23)C1c1ccco1 (centres undefined)
inactive

Tell me the recorded outcome of this test for CC(=O)c1c(O)n(C)c(=S)n(-c2ccccc2)c1=O .
inactive

Field: outcome | Entry: CC1=C(C(=O)Nc2ccc(F)cc2)C(c2cccc(C)c2)n2nc(CCCO)nc2N1 (centres undefined)
inactive
